# EXPERIMENTAL TARGET: Sodium channel protein type 10 subunit alpha (Homo sapiens, UniProt Q9Y5Y9)
# Sequence (Q9Y5Y9 whole entry, looked up): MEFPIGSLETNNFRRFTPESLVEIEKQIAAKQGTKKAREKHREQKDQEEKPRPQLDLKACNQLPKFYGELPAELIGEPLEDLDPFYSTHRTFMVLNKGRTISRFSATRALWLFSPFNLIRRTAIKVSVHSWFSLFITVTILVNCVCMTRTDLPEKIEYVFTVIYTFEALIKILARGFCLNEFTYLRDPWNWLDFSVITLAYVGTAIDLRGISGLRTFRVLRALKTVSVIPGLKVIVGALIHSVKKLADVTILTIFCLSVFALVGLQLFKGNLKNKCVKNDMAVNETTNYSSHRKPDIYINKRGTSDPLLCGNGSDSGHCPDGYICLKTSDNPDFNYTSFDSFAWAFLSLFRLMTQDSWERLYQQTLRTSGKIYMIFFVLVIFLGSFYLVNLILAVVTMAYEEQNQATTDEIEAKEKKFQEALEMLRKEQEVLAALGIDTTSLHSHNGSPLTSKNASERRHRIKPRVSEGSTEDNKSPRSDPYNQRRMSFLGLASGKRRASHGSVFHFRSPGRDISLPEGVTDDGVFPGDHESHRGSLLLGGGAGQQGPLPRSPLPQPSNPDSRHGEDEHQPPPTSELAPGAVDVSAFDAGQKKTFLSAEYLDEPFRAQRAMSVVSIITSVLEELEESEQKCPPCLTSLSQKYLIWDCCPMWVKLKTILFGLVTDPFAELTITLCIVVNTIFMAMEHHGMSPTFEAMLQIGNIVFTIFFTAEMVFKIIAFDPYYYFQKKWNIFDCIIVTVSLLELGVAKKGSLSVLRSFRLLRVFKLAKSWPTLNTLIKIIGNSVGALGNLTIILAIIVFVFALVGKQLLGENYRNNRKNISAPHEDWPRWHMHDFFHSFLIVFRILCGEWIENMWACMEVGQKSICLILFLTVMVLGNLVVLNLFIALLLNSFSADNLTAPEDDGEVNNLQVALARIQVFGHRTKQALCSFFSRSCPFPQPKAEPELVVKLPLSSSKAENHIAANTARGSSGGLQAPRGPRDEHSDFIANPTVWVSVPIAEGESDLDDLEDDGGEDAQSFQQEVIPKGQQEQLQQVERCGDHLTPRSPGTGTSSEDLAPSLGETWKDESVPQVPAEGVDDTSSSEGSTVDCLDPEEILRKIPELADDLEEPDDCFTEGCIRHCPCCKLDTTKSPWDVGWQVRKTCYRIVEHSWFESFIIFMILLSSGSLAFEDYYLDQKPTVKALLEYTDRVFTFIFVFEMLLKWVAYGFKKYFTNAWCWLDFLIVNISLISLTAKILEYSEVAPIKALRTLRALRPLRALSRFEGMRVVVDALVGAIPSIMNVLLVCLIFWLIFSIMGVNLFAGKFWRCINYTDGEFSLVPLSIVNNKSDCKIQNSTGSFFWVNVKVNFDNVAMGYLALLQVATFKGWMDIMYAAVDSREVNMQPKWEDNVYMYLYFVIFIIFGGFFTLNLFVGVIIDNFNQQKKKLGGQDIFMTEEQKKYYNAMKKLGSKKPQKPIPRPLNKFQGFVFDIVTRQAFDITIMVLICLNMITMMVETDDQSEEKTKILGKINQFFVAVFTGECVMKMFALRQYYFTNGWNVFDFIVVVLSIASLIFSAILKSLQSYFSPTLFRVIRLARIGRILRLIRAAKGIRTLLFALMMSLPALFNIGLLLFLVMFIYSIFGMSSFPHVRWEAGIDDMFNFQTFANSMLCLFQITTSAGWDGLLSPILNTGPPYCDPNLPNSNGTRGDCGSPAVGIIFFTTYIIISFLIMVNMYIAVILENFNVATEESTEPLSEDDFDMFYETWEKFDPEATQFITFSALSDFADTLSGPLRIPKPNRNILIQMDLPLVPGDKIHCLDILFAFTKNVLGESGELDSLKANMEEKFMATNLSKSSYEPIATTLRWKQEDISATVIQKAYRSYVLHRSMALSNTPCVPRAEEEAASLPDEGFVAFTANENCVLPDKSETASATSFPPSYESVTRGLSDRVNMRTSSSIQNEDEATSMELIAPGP
# PROTOCOL DESCRIPTION: Inhibition of human Nav1.8 expressed in HEK293 cells assessed as ratio of peak current magnitude after compound addition to control at 100 nM incubated at -80 mV holding potential by whole-cell patch-clamp technique
# Format: cell-based
READOUT LABEL: Ratio

Cc1nc(N2CCCC(F)(F)CC2)c(C(=O)Nc2ccc3c(c2)NC(=O)C3)cc1Cl
0.25
Cc1nc(N2CCCCCC2)c(C(=O)Nc2ccc3c(c2)C(=O)NC3)cc1Cl
0.7
Cc1nc(N2CCCC(F)(F)CC2)c(C(=O)Nc2ccc3c(c2)CNC3=O)cc1Cl
0.29

P = O=C1NCc2ccc(NC(=O)c3cc(Cl)cnc3N3CCCC(F)(F)CC3)cc21
Q = Cc1nc(N2CCCC(F)(F)CC2)c(C(=O)Nc2ccc3c(=O)[nH]c(=O)[nH]c3c2)cc1Cl
R = Cc1nc(N2CCCC(F)(F)CC2)c(C(=O)Nc2ccc3c(c2)C(=O)NC3)cc1Cl
q: # rank_down: sort by Ratio, max first Sort the labels as requested; that list is your answer.
a: P, Q, R
(P: 0.8, Q: 0.36, R: 0.2)

A = Cc1nc(N2CCCC(F)(F)CC2)c(C(=O)Nc2ccc3c(c2)C(=O)NCC3)cc1Cl
B = Cc1cc(F)ccc1Oc1nc(C(F)(F)F)ccc1C(=O)Nc1ccc2[nH][nH]c(=O)c2c1
q: Hello, I am sorting some records. Could you say if A or B has the smaller Ratio value? I would appreciate it if you answered with the label of your choice.
a: A

====

# EXPERIMENTAL TARGET: Sodium channel protein type 10 subunit alpha (Homo sapiens, UniProt Q9Y5Y9)
# PROTOCOL DESCRIPTION: Inhibition of human Nav1.8 expressed in HEK293 cells assessed as ratio of peak current magnitude after compound addition to control at 100 nM incubated at -80 mV holding potential by whole-cell patch-clamp technique
# Type: cell-based
READOUT LABEL: Ratio

Sample records with Ratio:
Cc1cc(F)ccc1Oc1cc(C(F)(F)F)ccc1C(=O)Nc1ccc2[nH][nH]c(=O)c2c1
0.98
O=C(Nc1ccc2[nH][nH]c(=O)c2c1)c1ccc(C(F)(F)F)cc1N1CCCC(F)(F)CC1
0.89
CNc1nc(N2CCCC(F)(F)CC2)c(C(=O)Nc2ccc3c(c2)C(=O)NC3)cc1Cl
0.93
Cc1nc(N2CCCC(F)(F)CC2)c(C(=O)Nc2ccc3c(c2)C(=O)NC3)cc1C(F)(F)F
0.76
Cc1nc(N2CCCC(F)(F)CC2)c(C(=O)Nc2ccc3c(c2)CC(=O)N3)cc1Cl
0.4

a = Cc1nc(N2CCCC(F)(F)CC2)c(C(=O)Nc2ccc3c(=O)[nH]cnc3c2)cc1Cl
b = Cc1nc(N2CCCC(F)(F)CC2)c(C(=O)Nc2ccc3o[nH]c(=O)c3c2)cc1Cl
c = Cc1cc(F)ccc1Oc1cc(C(F)(F)F)ccc1C(=O)Nc1ccn(COP(=O)(O)O)c(=O)c1
q: List by increasing Ratio. Sort the labels as requested; that list is your answer.
a: c, b, a

1 = Cc1nc(N2CCCC(F)(F)CC2)c(C(=O)Nc2ccc3c(=O)[nH][nH]c(=O)c3c2)cc1Cl
2 = Cc1nc(N2CCCC(F)(F)CC2)c(C(=O)Nc2ccc3cc[nH]c(=O)c3c2)cc1Cl
q: Which record would sort first by descending Ratio, 1 or 2 ? I would appreciate it if you answered with the label of your choice.
a: 1
(1: 0.88, 2: 0.5)

Every entry's value here was drawn from ChEMBL document CHEMBL5325430.
